Let's go through some recorded Ki values for Cruzipain (Trypanosoma cruzi) together.
One number for each entry, in nM.

[[record]]
sample_smiles = "O=C(N[C@@H](Cc1ccccc1)C(=O)N[C@@H](Cc1ccccc1)C(=O)CSC1CCCC1)OCc1ccccc1"
measured_metric = "Ki"
output_unit = "nM"
value = 34.3

[[record]]
sample_smiles = "CCOC(=O)CCSCC(=O)[C@H](Cc1ccccc1)NC(=O)[C@H](Cc1ccccc1)NC(=O)OCc1cccnc1"
measured_metric = "Ki"
output_unit = "nM"
value = 22.7

[[record]]
sample_smiles = "CC(C)C[C@H](NC(=O)N1CCOCC1)C(=O)N[C@@H](Cc1ccccc1)C(=O)CSC(C)(C)C"
measured_metric = "Ki"
output_unit = "nM"
value = 59.7


Field request: Ki | item: `CC(=O)NCCSCC(=O)[C@H](Cc1ccccc1)NC(=O)[C@H](Cc1ccccc1)NC(=O)OCc1ccccc1`
34.3
